# Test system: Vero E6 infected with SARS-CoV-2
# assayExplanation: inhibition of SARS-CoV-2 cytopathic effect; higher = more antiviral protection, active = above 15
# assayContext: 100 nM; 48 h
measuredQuantity: inhibition of SARS-CoV-2 cytopathic effect

Illustrative cases are given below, each with its answer.
[
  {
    "compound": "Cc1ccc(S(=O)(=O)NC(=O)NN2CCCCCC2)cc1 [tolazamide]",
    "systemName": "Vero E6 infected with SARS-CoV-2",
    "reportedResult": "0.85% (inactive)"
  },
  {
    "compound": "NC(Cc1ccc(I)cc1)C(=O)O (stereo in doubt)",
    "systemName": "Vero E6 infected with SARS-CoV-2",
    "reportedResult": "0.54% (inactive)"
  },
  {
    "compound": "CC1(C)Cc2c(-c3ccccc3)c(-c3ccc(Cl)cc3)c(CC(=O)O)n2C1",
    "systemName": "Vero E6 infected with SARS-CoV-2",
    "reportedResult": "4.49% (inactive)"
  },
  {
    "compound": "COC(=O)c1cc(OC)c2c(c1-c1c(CO)cc(OC)c3c1OCO3)OCO2",
    "systemName": "Vero E6 infected with SARS-CoV-2",
    "reportedResult": "-0.88% (inactive)"
  },
  {
    "compound": "O=C1Nc2ccc(Cl)c3c2C1(CCCCN1CC=C(c2ccc(Cl)cc2)CC1)CCC3 (centres undefined)",
    "systemName": "Vero E6 infected with SARS-CoV-2",
    "reportedResult": "-2.5% (inactive)"
  },
  {
    "compound": "C[C@@H]1NC(C)(C)CO[C@@]1(O)c1cccc(Cl)c1",
    "systemName": "Vero E6 infected with SARS-CoV-2",
    "reportedResult": "6.44% (inactive)"
  }
]

[ask] Vero E6 infected with SARS-CoV-2 / inhibition of SARS-CoV-2 cytopathic effect / CC[N+](CC)(CC)CCOc1cccc(OCC[N+](CC)(CC)CC)c1OCC[N+](CC)(CC)CC [gallamine-triethiodide] : value?
[reply] 3.37% (inactive)

[ask] Vero E6 infected with SARS-CoV-2 / inhibition of SARS-CoV-2 cytopathic effect / COc1ccc(Cl)cc1NC(=O)Nc1cc(C)nc2ccccc12 : value?
[reply] -0.41% (inactive)

[ask] Vero E6 infected with SARS-CoV-2 / inhibition of SARS-CoV-2 cytopathic effect / C#C[C@]1(OC(C)=O)CC[C@H]2[C@@H]3CCC4=CC(=O)CC[C@@H]4[C@H]3CC[C@@]21C [norethindrone-acetate] : value?
[reply] -1.33% (inactive)

* * *

Listed next: entries and their corresponding inhibition of SARS-CoV-2 cytopathic effect.
# System: Vero E6 infected with SARS-CoV-2
# assayExplanation: inhibition of SARS-CoV-2 cytopathic effect; higher = more antiviral protection, active = above 15
# assayContext: 1 nM; 48 h
Write the value in % as a bare number.

[
  {
    "molecule": "CC(C)[C@@H](C)/C=C/[C@@H](C)[C@H]1CC[C@H]2/C(=C/C=C3\\C[C@@H](O)CC[C@@H]3C)CCC[C@]12C [dihydrotachysterol]",
    "reportedResult": -0.76
  },
  {
    "molecule": "COc1cc2c(NC3CCN(C)CC3)nc(N3CCCN(C)CC3)nc2cc1OCCOCCN(C)C",
    "reportedResult": -0.25
  }
]

[ask] Reported inhibition of SARS-CoV-2 cytopathic effect for CN1CCCCC1Cn1cc(C(=O)c2cc([N+](=O)[O-])ccc2I)c2ccccc21 (configuration not stated) : what is it?
[reply] -0.48

[ask] Reported inhibition of SARS-CoV-2 cytopathic effect for CC(C)(Oc1ccc(CCNC(=O)c2ccc(Cl)cc2)cc1)C(=O)O [bezafibrate] : what is it?
[reply] -1.42

[ask] Reported inhibition of SARS-CoV-2 cytopathic effect for N#CCCCSC(=N)N [kevetrin] : what is it?
[reply] -0.54

[ask] Reported inhibition of SARS-CoV-2 cytopathic effect for O=P(O)(O)C(O)(Cn1ccnc1)P(=O)(O)O [zoledronic-acid] : what is it?
[reply] -0.24

[ask] Reported inhibition of SARS-CoV-2 cytopathic effect for NC[C@H]1O[C@H](O[C@H]2[C@H](O)[C@@H](O[C@H]3O[C@H](CO)[C@@H](O)[C@H](N)[C@H]3O)[C@H](N)C[C@@H]2N)[C@H](N)[C@@H](O)[C@@H]1O [bekanamycin] : what is it?
[reply] -0.6

[ask] Reported inhibition of SARS-CoV-2 cytopathic effect for O=[N+]([O-])/N=C1\NCCN1Cc1ccc(Cl)nc1 [imidacloprid] : what is it?
[reply] 0.83

[ask] Reported inhibition of SARS-CoV-2 cytopathic effect for O=C(Nc1ccc(Oc2ccc(Cl)cn2)c(Cl)c1)c1ccccn1 : what is it?
[reply] 0.81

[ask] Reported inhibition of SARS-CoV-2 cytopathic effect for CCOc1nc2cccc(C(=O)O)c2n1Cc1ccc(-c2ccccc2-c2nnn[nH]2)cc1 [candesartan] : what is it?
[reply] -1.63
